System: Plasmodium berghei
experiment: Luciferase/luciferin-expressing antifolate-resistant parasites were used to infect a culture of HepG2 cells that were pre-incubated with compounds. Infected hepatocytes emit light due to the luciferase reaction. Assay results are presented as the percent inhibition of light emission compared to control. […]
Format: functional
experimental.conditions: sporozoite, PBLUC_HILL_SLOPE 5.21, PBLUC_R_SQUARED 0.0507, read-out: LUCIFERASE INFECTION ASSAY - IC50
parameter: IC50 (µM)

# query.smiles, parameter, numeric.value
rows = [
    ("COc1cc(NC(=O)N2Cc3cnc(Nc4ccc(Oc5ccccc5)cc4)nc3C2)cc(OC)c1OC", "IC50", 5.26),
]

* * *

Test system: Plasmodium berghei
experiment: Luciferase/luciferin-expressing antifolate-resistant parasites were used to infect a culture of HepG2 cells that were pre-incubated with compounds. Infected hepatocytes emit light due to the luciferase reaction. Assay results are presented as the percent inhibition of light emission compared to control. […]
Assay type: functional
experimental.conditions: sporozoite, HEPG2TOX_HILL_SLOPE 1.69, HEPG2TOX_R_SQUARED 0.916, PBLUC_HILL_SLOPE 2.14, PBLUC_R_SQUARED 0.29, read-out: LUCIFERASE INFECTION ASSAY - IC50

# query.smiles, IC50 / µM
data = [
    ("Cc1ccc(NCc2c(Cl)nc3sccn23)c(C)c1", 10.3),
]

* * *

Tested on: Plasmodium berghei
experiment: Luciferase/luciferin-expressing antifolate-resistant parasites were used to infect a culture of HepG2 cells that were pre-incubated with compounds. Infected hepatocytes emit light due to the luciferase reaction. Assay results are presented as the percent inhibition of light emission compared to control. […]
Format: functional
experimental.conditions: sporozoite, HEPG2TOX_HILL_SLOPE 12.7, HEPG2TOX_R_SQUARED 0.925, PBLUC_HILL_SLOPE 2.58, PBLUC_R_SQUARED 0.503, read-out: LUCIFERASE INFECTION ASSAY - IC50
pIC50: −log10 of the molar value.

# compound, pIC50
rows = [
    ("O=C(NCc1ccco1)C1Cc2c(-c3ccccc3)ccnc2O1 (stereo unspecified)", 5.80),
]

* * *

Test system: Plasmodium berghei
experiment: Luciferase/luciferin-expressing antifolate-resistant parasites were used to infect a culture of HepG2 cells that were pre-incubated with compounds. Infected hepatocytes emit light due to the luciferase reaction. Assay results are presented as the percent inhibition of light emission compared to control. […]
Format: functional
experimental.conditions: sporozoite, HEPG2TOX_HILL_SLOPE 0.995, HEPG2TOX_R_SQUARED 0.66, PBLUC_HILL_SLOPE 1.64, PBLUC_R_SQUARED 0.772, read-out: LUCIFERASE INFECTION ASSAY - IC50
pIC50: −log10 of the molar value.

# query.smiles, pIC50
measured = [
    ("COc1ccc(-c2cnc3cnc(-c4cnn(C)c4)cn23)cc1", 5.52),
]

* * *

Test system: Plasmodium berghei
experiment: Luciferase/luciferin-expressing antifolate-resistant parasites were used to infect a culture of HepG2 cells that were pre-incubated with compounds. Infected hepatocytes emit light due to the luciferase reaction. Assay results are presented as the percent inhibition of light emission compared to control. […]
Type: functional
experimental.conditions: sporozoite, HEPG2TOX_HILL_SLOPE 1.21, HEPG2TOX_R_SQUARED 0.751, PBLUC_HILL_SLOPE 4.52, PBLUC_R_SQUARED 0.725, read-out: LUCIFERASE INFECTION ASSAY - IC50

# query.smiles, IC50 [nM]
rows = [
    ("CNC(=O)c1cccc(-c2ccc3ncc(-c4ccc(NC(C)=O)cc4)n3n2)c1", 1620),
]
